// data source = the Human Domainome abundance scans (Beltran et al. 2025)

B1: Membrane-associated guanylate kinase, WW and PDZ domain-containing protein 2, residues 296 to 340; numbered along this chain, Q86UL8 (parent)
chain: EDNEEPDPLPDNWEMAYTEKGEVYFIDHNTKTTSWLDPRLAKKAK

Variants of: B1
Test: abundance fitness (aPCA) (normalised: wild type 0, dead -1); higher = more abundant; growth selection in yeast, the domain comes from the species named
Details: Homo sapiens
We use 0.04 as the dividing line for abundance fitness: on or above the line is label 1, below is label 0.

Kindly determine if abundance fitness recorded for "A41L" is above or exactly 0.04.
label 0

Also "Y24D" , if possible.
label 0

Also "L36C" , if possible.
label 1

Also "P6N" , if possible.
label 0

Also "D7R" , if possible.
label 1

Also "E19R" , if possible.
label 0

Also "I26F" , if possible.
label 0

Also "K42C" , if possible.
label 1
